The values you see were collected from patent US20260250290A1.

MEASURED TARGET: full length SGK1 (Homo sapiens, UniProt O00141)
Construct: 125 μM full length SGK1 (Life Technologies Part #PR7358A); purchased Life Technologies PR7358A
Sequence (O00141 1-431): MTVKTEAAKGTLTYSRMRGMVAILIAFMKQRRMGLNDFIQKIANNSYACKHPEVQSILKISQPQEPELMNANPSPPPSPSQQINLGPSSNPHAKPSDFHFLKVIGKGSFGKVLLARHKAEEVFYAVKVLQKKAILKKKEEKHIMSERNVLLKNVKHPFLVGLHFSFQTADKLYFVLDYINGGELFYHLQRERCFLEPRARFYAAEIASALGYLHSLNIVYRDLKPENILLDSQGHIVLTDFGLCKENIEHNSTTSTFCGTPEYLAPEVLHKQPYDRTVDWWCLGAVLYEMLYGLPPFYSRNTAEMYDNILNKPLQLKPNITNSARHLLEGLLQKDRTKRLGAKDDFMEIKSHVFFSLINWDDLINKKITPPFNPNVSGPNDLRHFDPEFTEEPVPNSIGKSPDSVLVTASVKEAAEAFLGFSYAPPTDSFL
METHOD: SGK1 inhibition Assay A (Caliper LabChip electrophoretic separation of fluorescent peptide substrate and phosphorylated product)
Type: biochemical
MEASUREMENT CONTEXT: Assay A; 20 μM ATP, 40 min incubation; read-out: SGK1 IC50
Structures can show the parent of a compound that is named as a salt.
Documented pIC50 across a set of compounds
# pIC50 = -log10(concentration in molar units)

Completed entries (count: 5):
COMPOUND | MEASURED TARGET | pIC50
CC(=O)N1CC=C(c2cc(N3CCC[C@@H](NC(=O)c4cc5cnccc5[nH]4)C3)c3c(N)ncnn23)C1 | full length SGK1 (Homo sapiens, UniProt O00141) | 7.62
Nc1ncnn2c(-c3ccc(CN4CCOCC4)cc3)cc(N3CCC[C@@H](NC(=O)c4ccc(Cl)s4)C3)c12 [Example 221, TFA] | full length SGK1 (Homo sapiens, UniProt O00141) | 6.10
Cc1nc(C)c(C(=O)N[C@@H]2CCCN(c3cc(-c4cncnc4)n4ncnc(N)c34)C2)s1 | full length SGK1 (Homo sapiens, UniProt O00141) | 6.35
COCCNc1cccc(C(=O)N[C@@H]2CCCN(c3cc(C4=CCN(C(C)=O)C4)n4ncnc(N)c34)C2)n1 | full length SGK1 (Homo sapiens, UniProt O00141) | 6.70
CC(=O)N1CC=C(c2cc(N3CCC[C@@H](NC(=O)c4cccc(N5CCN(C)CC5)c4)C3)c3c(N)ncnn23)C1 | full length SGK1 (Homo sapiens, UniProt O00141) | 7.68

Provide the documented pIC50 with full length SGK1 (Homo sapiens, UniProt O00141) as the system for CC(=O)N1CC=C(c2cc(N3CCC[C@@H](NC(=O)c4sc(Cl)cc4OC4CCN(C5CC5)CC4)C3)c3c(N)ncnn23)C1 7.30

Provide the documented pIC50 with full length SGK1 (Homo sapiens, UniProt O00141) as the system for CCN(CC)CCOc1cc(C(F)F)sc1C(=O)N[C@@H]1CCCN(c2cc(C3=CCN(C(=O)OC)C3)n3ncnc(N)c23)C1 7.66
